# testTarget: P2Y12 receptor (Homo sapiens, UniProt Q9H244)
# Construct: expressed in transfected cells; host or cells: CHO cells (membrane preparation)
# Sequence (Q9H244 whole entry): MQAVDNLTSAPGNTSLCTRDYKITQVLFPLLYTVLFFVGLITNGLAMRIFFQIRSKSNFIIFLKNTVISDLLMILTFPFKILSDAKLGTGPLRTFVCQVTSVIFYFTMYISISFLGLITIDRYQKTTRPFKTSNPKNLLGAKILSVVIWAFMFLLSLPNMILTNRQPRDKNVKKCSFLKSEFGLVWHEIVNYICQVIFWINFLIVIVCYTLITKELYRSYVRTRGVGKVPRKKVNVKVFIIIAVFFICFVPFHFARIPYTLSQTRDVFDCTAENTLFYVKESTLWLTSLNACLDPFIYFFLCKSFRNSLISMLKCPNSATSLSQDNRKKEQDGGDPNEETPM
# assay: Functional inhibition of 2-Me-S-ADP induced P2Y12 signalling (35S-GTPγS, cell membranes from P2Y12 transfected CHO-cells)
# Assay type: biochemical
measurementType: pIC50
Please report pIC50 as the negative decimal logarithm of the molar concentration, giving only the number.

query: Find the recorded pIC50 belonging to "CC(C)OC(=O)c1cnc(N2CCN(C(=O)NS(=O)(=O)c3ccc(Cl)s3)CC2)c(Cl)c1" and report it.
result: 6.28

----------
# testTarget: P2Y12 receptor (Homo sapiens, UniProt Q9H244)
# Construct: expressed in transfected cells; host or cells: CHO cells (membrane preparation)
# assay: Functional inhibition of 2-Me-S-ADP induced P2Y12 signalling (35S-GTPγS, cell membranes from P2Y12 transfected CHO-cells)
# Format: biochemical
# conditionLabel: 5 μg membranes; EC80 concentration of agonist 2-methyl-thio-adenosine diphosphate; 35S-GTPγS; 30° C., 45 min; read-out: IC50
measurementType: pIC50
Please report pIC50 as the negative decimal logarithm of the molar concentration, giving only the number.

query: Find the recorded pIC50 belonging to "CCOC(=O)c1cnc(N2CCN(C(=O)NS(=O)(=O)c3ccccc3)CC2)c(Cl)c1" and report it.
result: 6.21
